Test system: erythrocytic stages of P. falciparum NF54
Assay: Plasmodium falciparum in vitro assay, [3H] hypoxanthine incorporation
Type: cell-based
Details: Plasmodium falciparum, Erythrocyte, 72 h; P. falciparum NF54 in human red blood cells; screening medium with human serum (50% final concentration); 48 h + 24 h incubation; read-out: IC50 on NF54 (with 50% Serum)
MEASURED_ENDPOINT: IC50 (nM)

{"COMPOUND": "CC(=O)N1CCN(c2ccc(CN(C(=O)C=Cc3ccc(C(F)(F)F)cc3)[C@@H](Cc3ccccc3)C(=O)N3CCN(Cc4ccc([N+](=O)[O-])cc4)CC3)cc2)CC1", "OBSERVED_VALUE": 43}
{"COMPOUND": "CC(=O)N1CCN(c2ccc(CN(C(=O)C=Cc3ccc(C(F)(F)F)cc3)[C@@H](Cc3ccccc3)C(=O)N3CCN(Cc4ccc(S(C)(=O)=O)cc4)CC3)cc2)CC1", "OBSERVED_VALUE": 3.5}
{"COMPOUND": "CCc1ccc(C=CC(=O)N(Cc2ccc(N3CCN(C(C)=O)CC3)cc2)[C@@H](Cc2ccccc2)C(=O)N2CCN(Cc3ccc(N(C)C)cc3)CC2)cc1", "OBSERVED_VALUE": 7.1}
{"COMPOUND": "CCOc1ccc(C=CC(=O)N(Cc2ccc(N3CCN(C(C)=O)CC3)cc2)[C@@H](Cc2ccccc2)C(=O)N2CCN(Cc3ccc(N(C)C)cc3)CC2)cn1", "OBSERVED_VALUE": 20}
{"COMPOUND": "CC(=O)N1CCN(c2ccc(CN(C(=O)C=Cc3ccc(C(C)C)cc3)[C@@H](Cc3ccccc3)C(=O)N3CCN(Cc4ccccc4)CC3)cc2)CC1", "OBSERVED_VALUE": 8.6}

---

Tested on: erythrocytic stages of P. falciparum NF54
Test: Plasmodium falciparum in vitro assay, [3H] hypoxanthine incorporation
Type: cell-based
Settings: Plasmodium falciparum, Erythrocyte, 72 h; P. falciparum NF54 in human red blood cells; screening medium with human serum (50% final concentration); 48 h + 24 h incubation; read-out: IC50 on NF54 (with 50% Serum)
pIC50: −log10 of the molar value.
Label scheme for pIC50: lower than 8 is no, 8 and above is yes.

{"COMPOUND": "CC(=O)N1CCN(c2ccc(CN(C(=O)C=Cc3ccc(C(F)(F)F)nc3)[C@@H](Cc3ccccc3)C(=O)N3CCN(Cc4ccc(N(C)C)cc4)CC3)cc2)CC1", "ASSAYED_SYSTEM": "erythrocytic stages of P. falciparum NF54", "GROUP_LABEL": "no"}
{"COMPOUND": "CCCOc1ccc(C=CC(=O)N(Cc2ccc(N3CCN(C(C)=O)CC3)cc2)[C@@H](Cc2ccccc2)C(=O)N2CCN(Cc3ccc(S(=O)(=O)CC)cc3)CC2)cc1", "ASSAYED_SYSTEM": "erythrocytic stages of P. falciparum NF54", "GROUP_LABEL": "yes"}
{"COMPOUND": "COc1ccc(CN2CCN(C(=O)[C@H](Cc3ccccc3)N(Cc3ccc(N4CCN(C(C)=O)CC4)cc3)C(=O)C=Cc3ccc(C(F)(F)F)cc3)CC2)cc1", "ASSAYED_SYSTEM": "erythrocytic stages of P. falciparum NF54", "GROUP_LABEL": "no"}
{"COMPOUND": "CC(=O)N1CCN(c2ccc(CN(C(=O)C=Cc3ccc(C(C)(C)C)cc3)[C@@H](Cc3ccccc3)C(=O)N3CCN(Cc4ccc(N(C)CCO)cc4)CC3)cc2)CC1", "ASSAYED_SYSTEM": "erythrocytic stages of P. falciparum NF54", "GROUP_LABEL": "yes"}
{"COMPOUND": "CC(=O)N1CCN(c2ccc(CN(C(=O)C=Cc3ccc(OC(C)C)cc3)[C@@H](Cc3ccccc3)C(=O)N3CCN(Cc4ccc(N(C)CCO)cc4)CC3)cc2)CC1", "ASSAYED_SYSTEM": "erythrocytic stages of P. falciparum NF54", "GROUP_LABEL": "yes"}
{"COMPOUND": "CC(=O)N1CCN(c2ccc(CN(C(=O)C=Cc3ccc(C(C)(C)C)cc3)[C@@H](Cc3ccccc3)C(=O)N3CCN(Cc4ccc(S(C)(=O)=O)cc4)CC3)cc2)CC1", "ASSAYED_SYSTEM": "erythrocytic stages of P. falciparum NF54", "GROUP_LABEL": "yes"}
{"COMPOUND": "CCCOc1ccc(C=CC(=O)N(Cc2ccc(N3CCN(C(C)=O)CC3)cc2)[C@@H](Cc2ccccc2)C(=O)N2CCN(Cc3ccc(C#N)cc3)CC2)cc1", "ASSAYED_SYSTEM": "erythrocytic stages of P. falciparum NF54", "GROUP_LABEL": "yes"}
{"COMPOUND": "CC(=O)Nc1ccc(C=CC(=O)N(Cc2ccc(N3CCN(C(C)=O)CC3)cc2)[C@@H](Cc2ccccc2)C(=O)N2CCN(Cc3ccc(Cl)cc3)CC2)cc1", "ASSAYED_SYSTEM": "erythrocytic stages of P. falciparum NF54", "GROUP_LABEL": "no"}

---

Test system: erythrocytic stages of P. falciparum NF54
Assay: Plasmodium falciparum in vitro assay, [3H] hypoxanthine incorporation
Assay type: cell-based
Settings: Plasmodium falciparum, Erythrocyte, 72 h; P. falciparum NF54 in human red blood cells; screening medium with human serum (50% final concentration); 48 h + 24 h incubation; read-out: IC50 on NF54 (with 50% Serum)
pIC50: −log10 of the molar value.
This listing pairs compounds with measured pIC50.

{"COMPOUND": "CC(=O)N1CCN(c2ccc(CN(C(=O)C=Cc3ccc(C(F)(F)F)cc3)[C@@H](Cc3ccccc3)C(=O)N3CCN(Cc4ccc(N(C)C)cc4)CC3)cc2)CC1", "pIC50": 7.68}
{"COMPOUND": "CCOc1ccc(C=CC(=O)N(Cc2ccc(N3CCN(C(C)=O)CC3)cc2)[C@@H](Cc2ccccc2)C(=O)N2CCN(Cc3ccc(Cl)cc3)CC2)cc1", "pIC50": 8.05}
{"COMPOUND": "CCc1ccc(C=CC(=O)N(Cc2ccc(N3CCN(C(C)=O)CC3)cc2)[C@@H](Cc2ccccc2)C(=O)N2CCN(Cc3ccc(N(C)CCO)cc3)CC2)cc1", "pIC50": 8.42}
{"COMPOUND": "CC(=O)N1CCN(c2ccc(CN(C(=O)C=Cc3ccc(OC(C)C)cc3)[C@@H](Cc3ccccc3)C(=O)N3CCN(Cc4ccccc4)CC3)cc2)CC1", "pIC50": 8.14}
{"COMPOUND": "CCOc1ccc(C=CC(=O)N(Cc2ccc(N3CCN(C(C)=O)CC3)cc2)[C@@H](Cc2ccccc2)C(=O)N2CCN(Cc3ccccc3)CC2)cc1", "pIC50": 8.00}
{"COMPOUND": "CC(=O)N1CCN(c2ccc(CN(C(=O)C=Cc3ccc(C(F)(F)F)nc3)[C@@H](Cc3ccccc3)C(=O)N3CCN(Cc4ccc(N(C)CCO)cc4)CC3)cc2)CC1", "pIC50": 7.53}

---

Test system: erythrocytic stages of P. falciparum NF54
Assay: Plasmodium falciparum in vitro assay, [3H] hypoxanthine incorporation
Type: cell-based
Settings: Plasmodium falciparum, Erythrocyte, 72 h; P. falciparum NF54 in human red blood cells; screening medium with human serum (50% final concentration); 48 h + 24 h incubation; read-out: IC50 on NF54 (with 50% Serum)
Decide using IC50 alone. Strictly below 9 nM: y. Equal to or above 9 nM: n.

{"COMPOUND": "CC(=O)N1CCN(c2ccc(CN(C(=O)C=Cc3ccc(OC(C)C)cc3)[C@@H](Cc3ccccc3)C(=O)N3CCN(Cc4ccc(N(C)C)cc4)CC3)cc2)CC1 [Example 19]", "ASSAYED_SYSTEM": "erythrocytic stages of P. falciparum NF54", "GROUP_LABEL": "n"}
{"COMPOUND": "CCCOc1ccc(C=CC(=O)N(Cc2ccc(N3CCN(C(C)=O)CC3)cc2)[C@@H](Cc2ccccc2)C(=O)N2CCN(Cc3ccc(N(C)CCO)cc3)CC2)cc1 [Example 57]", "ASSAYED_SYSTEM": "erythrocytic stages of P. falciparum NF54", "GROUP_LABEL": "y"}
{"COMPOUND": "CC(=O)N1CCN(c2ccc(CN(C(=O)C=Cc3ccc(S(C)(=O)=O)cc3)[C@@H](Cc3ccccc3)C(=O)N3CCN(Cc4ccccc4)CC3)cc2)CC1 [Example 6]", "ASSAYED_SYSTEM": "erythrocytic stages of P. falciparum NF54", "GROUP_LABEL": "n"}
{"COMPOUND": "CCCOc1ccc(C=CC(=O)N(Cc2ccc(N3CCN(C(C)=O)CC3)cc2)[C@@H](Cc2ccccc2)C(=O)N2CCN(Cc3ccccc3)CC2)cc1 [Example 8]", "ASSAYED_SYSTEM": "erythrocytic stages of P. falciparum NF54", "GROUP_LABEL": "n"}
{"COMPOUND": "CCc1ccc(C=CC(=O)N(Cc2ccc(N3CCN(C(C)=O)CC3)cc2)[C@@H](Cc2ccccc2)C(=O)N2CCN(Cc3ccc(Cl)cc3)CC2)cc1 [Example 40]", "ASSAYED_SYSTEM": "erythrocytic stages of P. falciparum NF54", "GROUP_LABEL": "n"}
{"COMPOUND": "CC(=O)N1CCN(c2ccc(CN(C(=O)C=Cc3ccccc3)[C@@H](Cc3ccccc3)C(=O)N3CCN(Cc4ccc(N(C)C)cc4)CC3)cc2)CC1 [Example 66]", "ASSAYED_SYSTEM": "erythrocytic stages of P. falciparum NF54", "GROUP_LABEL": "n"}
{"COMPOUND": "CC(=O)N1CCN(c2ccc(CN(C(=O)C=Cc3ccc(C)cc3)[C@@H](Cc3ccccc3)C(=O)N3CCN(Cc4ccc(N(C)C)cc4)CC3)cc2)CC1 [Example 67]", "ASSAYED_SYSTEM": "erythrocytic stages of P. falciparum NF54", "GROUP_LABEL": "n"}
{"COMPOUND": "CC(=O)N1CCN(c2ccc(CN(C(=O)C=Cc3ccc(C(F)(F)F)cc3)[C@@H](Cc3ccccc3)C(=O)N3CCN(Cc4ccc(N(C)CCO)cc4)CC3)cc2)CC1 [Example 50]", "ASSAYED_SYSTEM": "erythrocytic stages of P. falciparum NF54", "GROUP_LABEL": "n"}
{"COMPOUND": "CCOc1ccc(C=CC(=O)N(Cc2ccc(N3CCN(C(C)=O)CC3)cc2)[C@@H](Cc2ccccc2)C(=O)N2CCN(Cc3ccc(N(C)C)cc3)CC2)cc1 [Example 15]", "ASSAYED_SYSTEM": "erythrocytic stages of P. falciparum NF54", "GROUP_LABEL": "y"}
{"COMPOUND": "COc1ccc(C=CC(=O)N(Cc2ccc(N3CCN(C(C)=O)CC3)cc2)[C@@H](Cc2ccccc2)C(=O)N2CCN(Cc3ccc(N(C)C)cc3)CC2)cn1 [Example 13]", "ASSAYED_SYSTEM": "erythrocytic stages of P. falciparum NF54", "GROUP_LABEL": "n"}
{"COMPOUND": "CCc1ccc(C=CC(=O)N(Cc2ccc(N3CCN(C(C)=O)CC3)cc2)[C@@H](Cc2ccccc2)C(=O)N2CCN(Cc3ccc(C#N)cc3)CC2)cc1 [Example 30]", "ASSAYED_SYSTEM": "erythrocytic stages of P. falciparum NF54", "GROUP_LABEL": "y"}
{"COMPOUND": "COc1ccc(C=CC(=O)N(Cc2ccc(N3CCN(C(C)=O)CC3)cc2)[C@@H](Cc2ccccc2)C(=O)N2CCN(Cc3ccc(N(C)C)cc3)CC2)cc1 [Example 69]", "ASSAYED_SYSTEM": "erythrocytic stages of P. falciparum NF54", "GROUP_LABEL": "n"}
{"COMPOUND": "CC(=O)N1CCN(c2ccc(CN(C(=O)C=Cc3ccc(C(F)(F)F)cc3)[C@@H](Cc3ccccc3)C(=O)N3CCN(Cc4ccccc4)CC3)cc2)CC1 [Example 1, reference compound]", "ASSAYED_SYSTEM": "erythrocytic stages of P. falciparum NF54", "GROUP_LABEL": "n"}
{"COMPOUND": "CCOc1ccc(C=CC(=O)N(Cc2ccc(N3CCN(C(C)=O)CC3)cc2)[C@@H](Cc2ccccc2)C(=O)N2CCN(Cc3ccc(N(C)CCO)cc3)CC2)cc1 [Example 54]", "ASSAYED_SYSTEM": "erythrocytic stages of P. falciparum NF54", "GROUP_LABEL": "y"}
{"COMPOUND": "CC(=O)N1CCN(c2ccc(CN(C(=O)C=Cc3ccc(OC(C)C)cc3)[C@@H](Cc3ccccc3)C(=O)N3CCN(Cc4ccc(Cl)cc4)CC3)cc2)CC1 [Example 39]", "ASSAYED_SYSTEM": "erythrocytic stages of P. falciparum NF54", "GROUP_LABEL": "n"}
{"COMPOUND": "CC(=O)N1CCN(c2ccc(CN(C(=O)C=Cc3ccc(Cl)cc3)[C@@H](Cc3ccccc3)C(=O)N3CCN(Cc4ccc(N(C)C)cc4)CC3)cc2)CC1 [Example 73]", "ASSAYED_SYSTEM": "erythrocytic stages of P. falciparum NF54", "GROUP_LABEL": "n"}
{"COMPOUND": "CC(=O)N1CCN(c2ccc(CN(C(=O)C=Cc3ccc(OC(F)(F)F)cc3)[C@@H](Cc3ccccc3)C(=O)N3CCN(Cc4ccc(C#N)cc4)CC3)cc2)CC1 [Example 33]", "ASSAYED_SYSTEM": "erythrocytic stages of P. falciparum NF54", "GROUP_LABEL": "n"}
{"COMPOUND": "CCOc1ccc(C=CC(=O)N(Cc2ccc(N3CCN(C(C)=O)CC3)cc2)[C@@H](Cc2ccccc2)C(=O)N2CCN(Cc3ccc(C#N)cc3)CC2)cc1 [Example 25]", "ASSAYED_SYSTEM": "erythrocytic stages of P. falciparum NF54", "GROUP_LABEL": "y"}
{"COMPOUND": "CC(=O)N1CCN(c2ccc(CN(C(=O)C=Cc3ccc(C(C)(C)C)cc3)[C@@H](Cc3ccccc3)C(=O)N3CCN(Cc4ccc(C#N)cc4)CC3)cc2)CC1 [Example 34]", "ASSAYED_SYSTEM": "erythrocytic stages of P. falciparum NF54", "GROUP_LABEL": "y"}
{"COMPOUND": "CC(=O)Nc1ccc(C=CC(=O)N(Cc2ccc(N3CCN(C(C)=O)CC3)cc2)[C@@H](Cc2ccccc2)C(=O)N2CCN(Cc3ccccc3)CC2)cc1 [Example 7]", "ASSAYED_SYSTEM": "erythrocytic stages of P. falciparum NF54", "GROUP_LABEL": "n"}
{"COMPOUND": "CC(=O)N1CCN(c2ccc(CN(C(=O)C=Cc3ccc(OC(F)F)cc3)[C@@H](Cc3ccccc3)C(=O)N3CCN(Cc4ccc(C#N)cc4)CC3)cc2)CC1 [Example 31]", "ASSAYED_SYSTEM": "erythrocytic stages of P. falciparum NF54", "GROUP_LABEL": "y"}
